Reported LogP values follow for various compounds
# METHOD_DESCRIPTION: Log P by HPLC on reversed phase columns (EEC directive 79/831 Annex V.A8)
# Format: physicochemical

Look over these answered cases.
# COMPOUND, LogP
records = [
    ("OC(Cc1ccnc(Cl)c1)(Cn1cncn1)c1ccc(F)cc1F (centres unmarked)", "1.86^[a]"),
    ("OC(Cc1ccnc(Cl)c1)(Cn1cncn1)c1ccc(Oc2ccc(F)cc2F)cc1 (centres unmarked)", "2.69^[a]"),
    ("OC(Cc1ccncc1F)(Cn1cncn1)c1ccc(Cl)cc1 (centres unmarked)", "1.54^[a]"),
    ("OC(Cc1ccnc(Cl)c1)(Cn1cncn1)c1ccccc1 (centres unmarked)", "1.60^[a]"),
]

Query compound follows.
Summary for this compound, OC(Cc1ccnc(Cl)c1)(Cn1cncn1)c1ccc(Cl)cc1Cl (centres unmarked) : LogP is 2.42^[a]

====

# METHOD_DESCRIPTION: Log P by HPLC on reversed phase columns (EEC directive 79/831 Annex V.A8)
# Assay type: physicochemical
# CONDITION_DETAILS: Table 2, epoxides of formula (XII); method [a]: LC-UV, acidic range, 0.1% formic acid in water and acetonitrile
METRIC_NAME: LogP

Summary for this compound, Fc1ccc(C2(Cc3ccnc(Cl)c3)CO2)cc1 (stereo not drawn) [XII-14] : LogP is 2.76^[a]

Summary for this compound, Fc1ccc(Oc2ccc(C3(Cc4cc(F)ncc4Cl)CO3)cc2)c(F)c1 (racemic) [XII-41] : LogP is 4.51^[a]

Summary for this compound, Clc1ccccc1C1(Cc2c(Cl)cncc2Cl)CO1 (racemic) [XII-59] : LogP is 4.04^[a]

Summary for this compound, Fc1cnccc1CC1(c2ccc(-c3ccccc3)cc2)CO1 (stereo not drawn) [XII-8] : LogP is 3.37^[a]

Summary for this compound, Fc1cnc(Cl)cc1CC1(c2ccc(Cl)cc2)CO1 (stereo not drawn) [XII-17] : LogP is 3.56^[a]

Summary for this compound, Fc1ccc(C2(Cc3ccncc3Cl)CO2)c(F)c1 (stereo not drawn) [XII-34] : LogP is 2.76^[a]

Summary for this compound, Clc1cc(CC2(c3ccc(Oc4ccccc4)cc3)CO2)ccn1 (stereo not drawn) [XII-9] : LogP is 3.37^[a]

Summary for this compound, Clc1cncc(Cl)c1CC1(c2ccc(-c3ccccc3)cc2)CO1 (racemic) [XII-53] : LogP is 4.89^[a]

Summary for this compound, Clc1cccc(C2(Cc3cccnc3Cl)CO2)c1 (stereo not drawn) [XII-23] : LogP is 3.24^[a]

====

Reported LogP values follow for various compounds
# METHOD_DESCRIPTION: Log P by HPLC on reversed phase columns (EEC directive 79/831 Annex V.A8)
# Assay type: physicochemical
# CONDITION_DETAILS: Table 2, epoxides of formula (XII); method [a]: LC-UV, acidic range, 0.1% formic acid in water and acetonitrile

Look over these answered cases.
# COMPOUND, LogP
rows = [
    ("Fc1cnccc1CC1(c2ccc(Oc3ccccc3)cc2)CO1 (stereo not shown)", "3.37^[a]"),
    ("Fc1ccc(C2(Cc3cc(F)ncc3Cl)CO2)c(F)c1 (racemic)", "3.46^[a]"),
    ("Fc1cnccc1CC1(c2ccc(Cl)cc2Cl)CO1 (stereo not shown)", "3.19^[a]"),
]

Summary for this compound, Fc1ccc(Oc2ccc(C3(Cc4ccncc4F)CO3)cc2)c(F)c1 (stereo not shown) : LogP is 3.37^[a]

====

# METHOD_DESCRIPTION: Log P by HPLC on reversed phase columns (EEC directive 79/831 Annex V.A8)
# Type: physicochemical
# CONDITION_DETAILS: Table 2, epoxides of formula (XII); method [a]: LC-UV, acidic range, 0.1% formic acid in water and acetonitrile
METRIC_NAME: LogP

Look over these answered cases.
# COMPOUND, LogP
rows = [
    ("Clc1ccccc1COc1ccc(C2(Cc3ccncc3Cl)CO2)cc1 (racemic)", "4.30^[a]"),
    ("N#Cc1ccc(C2(Cc3cccnc3Cl)CO2)cc1 (stereo not shown)", "2.35^[a]"),
    ("Fc1cc(CC2(c3ccc(-c4ccccc4)cc3)CO2)c(Cl)cn1 (racemic)", "4.64^[a]"),
    ("Clc1ccc(C2(Cc3cccnc3Cl)CO2)cc1 (stereo not shown)", "3.25^[a]"),
    ("Fc1ccc(C2(Cc3ccncc3Cl)CO2)cc1 (stereo not shown)", "2.65^[a]"),
    ("Clc1ccc(C2(Cc3ccnc(Cl)c3)CO2)cc1 (stereo not shown)", "3.19^[a]"),
]

Summary for this compound, Fc1ccc(C2(Cc3c(Cl)cncc3Cl)CO2)cc1 (racemic) : LogP is 3.58^[a]

====

Reported LogP values follow for various compounds
# METHOD_DESCRIPTION: Log P by HPLC on reversed phase columns (EEC directive 79/831 Annex V.A8)
# Format: physicochemical
# CONDITION_DETAILS: Table 1, formula (I); method [a]: LC-UV, acidic range, 0.1% formic acid in water and acetonitrile

Look over these answered cases.
# COMPOUND, LogP
measured = [
    ("OC(Cc1ccncc1Cl)(Cn1cncn1)c1ccc(-c2ccccc2)cc1 (centres unmarked)", "2.46^[a]"),
    ("OC(Cc1cc(F)ncc1Cl)(Cn1cncn1)c1ccc(-c2ccccc2)cc1 (centres unmarked)", "3.02^[a]"),
    ("OC(Cc1ccncc1F)(Cn1cncn1)c1ccc(-c2ccccc2)cc1 (centres unmarked)", "2.13^[a]"),
    ("OC(Cc1ccnc(Cl)c1)(Cn1cncn1)c1ccc(-c2ccccc2)cc1 (centres unmarked)", "2.57^[a]"),
]

Query compound follows.
Summary for this compound, OC(Cc1cc(Cl)ncc1F)(Cn1cncn1)c1ccc(-c2ccccc2)cc1 (centres unmarked) : LogP is 2.88^[a]

====

# METHOD_DESCRIPTION: Log P by HPLC on reversed phase columns (EEC directive 79/831 Annex V.A8)
# Assay type: physicochemical
# CONDITION_DETAILS: Table 2, epoxides of formula (XII); method [a]: LC-UV, acidic range, 0.1% formic acid in water and acetonitrile
Reported LogP values follow for various compounds

Look over these answered cases.
# COMPOUND, RESULT
data = [
    ("Fc1ccc(C2(Cc3ccncc3F)CO2)cc1 (stereo not drawn) [XII-4]", "2.23^[a]"),
    ("Fc1cnccc1CC1(c2ccc(Cl)cc2)CO1 (stereo not drawn) [XII-2]", "2.65^[a]"),
    ("Fc1ccc(Oc2ccc(C3(Cc4cc(Cl)ncc4F)CO3)cc2)c(F)c1 (stereo not drawn) [XII-21]", "4.17^[a]"),
    ("Fc1ccc(C2(Cc3ccncc3F)CO2)c(F)c1 (stereo not drawn) [XII-6]", "2.38^[a]"),
    ("Fc1ccc(C2(Cc3cc(Cl)ncc3F)CO2)c(F)c1 (stereo not drawn) [XII-20]", "3.24^[a]"),
    ("Clc1cnccc1CC1(c2cccc(Cl)c2Cl)CO1 (racemic) [XII-61]", "3.53^[a]"),
    ("Fc1c(CC2(c3ccc(Oc4ccccc4)cc3)CO2)ccnc1Cl (racemic) [XII-48]", "4.20^[a]"),
    ("Fc1c(CC2(c3ccc(-c4ccccc4)cc3)CO2)ccnc1Cl (racemic) [XII-45]", "4.25^[a]"),
]

Summary for this compound, Fc1c(CC2(c3ccc(Cl)cc3Cl)CO2)ccnc1Cl (racemic) [XII-46] : LogP is 3.02^[a]

Summary for this compound, Fc1cnc(Cl)cc1CC1(c2ccc(-c3ccccc3)cc2)CO1 (stereo not drawn) [XII-22] : LogP is 4.28^[a]

Summary for this compound, FC(F)(F)c1ccc(C2(Cc3cccnc3Cl)CO2)cc1 (stereo not drawn) [XII-25] : LogP is 3.46^[a]

Summary for this compound, Fc1cc(CC2(c3ccc(Oc4ccccc4)cc3)CO2)c(Cl)cn1 (racemic) [XII-40] : LogP is 4.57^[a]

====

Reported LogP values follow for various molecules
# METHOD_DESCRIPTION: Log P by HPLC on reversed phase columns (EEC directive 79/831 Annex V.A8)
# Assay type: physicochemical
# CONDITION_DETAILS: Table 2, epoxides of formula (XII); method [a]: LC-UV, acidic range, 0.1% formic acid in water and acetonitrile

# MOLECULE, LogP
measured = [
    ("Clc1cncc(Cl)c1CC1(c2ccc(Oc3ccccc3)cc2)CO1 (racemic) [XII-51]", "4.76^[a]"),
    ("Clc1ccccc1COc1cccc(C2(Cc3ccncc3Cl)CO2)c1 (racemic) [XII-63]", "4.30^[a]"),
    ("Fc1ccc(C2(Cc3cc(Cl)ncc3F)CO2)cc1 (stereo not drawn) [XII-16]", "3.15^[a]"),
    ("Fc1ccc(Oc2ccc(C3(Cc4ccnc(Cl)c4)CO3)cc2)c(F)c1 (stereo not drawn) [XII-12]", "3.85^[a]"),
    ("Clc1cnccc1CC1(c2ccccc2Cl)CO1 (stereo not drawn) [XII-29]", "3.02^[a]"),
]

Query molecule follows.
Summary for this molecule, Fc1cc(CC2(c3ccc(Cl)cc3)CO2)c(Cl)cn1 (racemic) [XII-37] : LogP is 3.85^[a]
